Target: Kras and SOS1 (biotin-tagged human Kras loaded with GDP, His-tagged human SOS1) (Homo sapiens, UniProt P01116, G12D)
Construct: made in house; host or cells: E. coli (stated for Kras only)
Sequence (P01116 1-188 isoform P01116-2 G12D): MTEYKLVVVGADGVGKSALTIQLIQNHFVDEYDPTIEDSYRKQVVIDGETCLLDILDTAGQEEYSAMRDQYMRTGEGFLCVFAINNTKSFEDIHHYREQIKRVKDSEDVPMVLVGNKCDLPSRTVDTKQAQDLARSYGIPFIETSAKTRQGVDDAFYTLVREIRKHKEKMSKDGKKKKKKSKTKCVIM
Test: Protein-protein interaction inhibition between Kras and SOS1 (KrasGl2D-SOS PPI) using AlphaScreen
Type: binding
Conditions: AlphaScreen; biotin-tagged human Kras loaded with GDP, His-tagged human SOS1; read-out: KRAS G12D-SOS PPI IC50
Positions of bridges follow the written chain, without caps; N, C: chain ends. Non-standard residues stand in square brackets, D forms with d. Residues, ends and D or L forms follow the SMILES beside them. *: point of attachment. hPhe(3-Cl-4-CF3) = N[C@@H](CCc1ccc(C(F)(F)F)c(Cl)c1)C(=O)O; NMeChg = CN[C@H](C(=O)O)C1CCCCC1; NMeD = CN[C@@H](CC(=O)O)C(=O)O; NMeL = CN[C@@H](CC(C)C)C(=O)O; NMeNva = CCC[C@H](NC)C(=O)O; Piperidide = C1CCN(*)CC1; Ac5c = NC1(C(=O)O)CCCC1; Sar = CNCC(=O)O
endpoint label: pIC50
Quick note: pIC50 values are minus log10 of concentrations in mol/L.

INPUT: Record request: pIC50 value, item CCC[C@H]1C(=O)N(C)CC(=O)N[C@@H](CCc2ccc(C(F)(F)F)c(Cl)c2)C(=O)N2CCC[C@H]2C(=O)NC2(CCCC2)C(=O)N(C)[C@@H](C2CCCCC2)C(=O)N(C)[C@H](C(=O)N2CCCCC2)CC(=O)N(C)[C@@H](CC(C)C)C(=O)N[C@@H]([C@@H](C)CC)C(=O)N(C)CC(=O)N(C)CC(=O)N1C [Compound 187] ([NMeL]I[Sar][Sar][NMeNva][Sar][hPhe(3-Cl-4-CF3)]P[Ac5c][NMeChg][NMeD]-Piperidide; lactam N-11)
OUTPUT: 8.49

Where these numbers come from: patent US12371454B2
